Data provenance: PubChem BioAssay (NCI)

- Tested on: OVCAR-3 ovarian
- assay.name: NCI-60 one-dose screen, 48 h (100 = growth as untreated, 0 = no growth, -100 = all killed)
- stated.conditions: 10 µM unless noted
About 83,000 compounds went through this panel and 20% of them were active in at least one assay; those are over-represented in the sample as a whole. Active and inactive are the calls of the source. The calls were made as follows: active = growth percent below 10; inactive = the rest.
recorded.endpoint: growth

# compound, study.system, recorded.endpoint, result
rows = [
    ("O=[N+]([O-])c1ccc(-c2cc3c(Nc4ccc(OCc5cccc(Cl)c5)c(Cl)c4)ncnc3s2)cc1", "OVCAR-3 ovarian", "growth", "26.7% (inactive)"),
    ("Cc1nc2ccc(C(=O)NCc3cc(C(=O)O)c(C)o3)cc2nc1C", "OVCAR-3 ovarian", "growth", "101% (inactive)"),
    ("CCCCNC(=O)NS(=O)(=O)c1ccc(N2N=C(c3ccc(C)cc3C)CC2c2ccc(N(C)C)cc2)cc1 (stereo not given)", "OVCAR-3 ovarian", "growth", "51.2% (inactive)"),
    ("Cn1ncc2c(Nc3ccc(Br)cc3)nc(Nc3ccc(Br)cc3)nc21", "OVCAR-3 ovarian", "growth", "68.2% (inactive)"),
    ("COc1cc(-c2cc(-c3ccc(Nc4nc(Nc5ccccc5)nc(Nc5ccc(Cl)cc5)n4)cc3)nc(N)n2)cc(OC)c1OC", "OVCAR-3 ovarian", "growth", "63.8% (inactive)"),
]
